System: Enterococcus sp.
Test: in vitro antibacterial evaluation, MIC by broth dilution
Assay type: cell-based
Conditions: broth dilution, inoculum 5×10^5 CFU/mL, 18 hours at 35° C.; strain GC 6189
recordedMetric: MIC Enterococcus faecalis (GC 6189) (µg/mL)
Give bare numbers, in µg/mL.

[[record]]
molecule = "CC(c1ccccc1)C1NC(=O)CNC(=O)C(CO)NC(=O)C(C(O)C2CNC(=N)N2C2OC(CO)C(O)C(O)C2O)NC(=O)C(C(O)C2CNC(=N)N2)NC(=O)C(Cc2ccc(OC3OC(CO)C(OC4OC5COC6(CCCCCCCCCCCC6)OC5C(O)C4O)C(O)C3O)cc2)NC1=O (stereo not shown)"
measuredresult = 16

[[record]]
molecule = "CC(c1ccccc1)C1NC(=O)CNC(=O)C(CO)NC(=O)C(C(O)C2CNC(=N)N2C2OC(CO)C(O)C(O)C2O)NC(=O)C(C(O)C2CNC(=N)N2)NC(=O)C(Cc2ccc(OC3OC(CO)C(OC4OC5COC6(CC(C)(C)CC(C)(C)C6)OC5C(O)C4O)C(O)C3O)cc2)NC1=O (stereo not shown)"
measuredresult = 2

[[record]]
molecule = "CC(c1ccccc1)C1NC(=O)CNC(=O)C(CO)NC(=O)C(C(O)C2CNC(=N)N2C2OC(CO)C(O)C(O)C2O)NC(=O)C(C(O)C2CNC(=N)N2)NC(=O)C(Cc2ccc(OC3OC(CO)C(OC4OC(CO)C(O)C5OC6(CCCCCCCCCCCC6)OC45)C(O)C3O)cc2)NC1=O (stereo not shown) [Example 210a]"
measuredresult = 8


# MIC Enterococcus faecalis (GC 6189) (molecule: CC(c1ccc(Cl)cc1)C1NC(=O)CNC(=O)C(CO)NC(=O)C(C(O)C2CNC(=N)N2C2OC(CO)C(O)C(O)C2O)NC(=O)C(C(O)C2CNC(=N)N2)NC(=O)C(Cc2ccc(OC3OC(CO)C(OC4OC5COC(C6CCCCC6)OC5C(O)C4O)C(O)C3O)cc2)NC1=O (stereo not shown) ) is 0.5

* * *

Assignment: determine reported MIC Streptococcus pneumoniae (ATCC 6301) for the given molecules.
System: Streptococcus sp.
Test: in vitro antibacterial evaluation, MIC by broth dilution
Type: cell-based
Details: Streptococcus pneumoniae (ATCC 6301); broth dilution, 18 hours at 35° C.

Known results for molecules:
[[record]]
molecule = "CC(c1ccccc1)C1NC(=O)CNC(=O)C(CO)NC(=O)C(C(O)C2CNC(=N)N2C2OC(CO)C(O)C(O)C2O)NC(=O)C(C(O)C2CNC(=N)N2)NC(=O)C(Cc2ccc(OC3OC(CO)C(OC4OC5COC(Cc6ccc(Cl)cc6)OC5C(O)C4O)C(O)C3O)cc2)NC1=O (stereo not shown) [Example 120]"
systemtested = "Streptococcus sp."
measuredresult = "<0.5 µg/mL"

[[record]]
molecule = "CC(c1ccccc1)C1NC(=O)CNC(=O)C(CO)NC(=O)C(C(O)C2CNC(=N)N2C2OC(CO)C(O)C(O)C2O)NC(=O)C(C(O)C2CNC(=N)N2)NC(=O)C(Cc2ccc(OC3OC(CO)C(OC4OC5COC(c6ccsc6)OC5C(O)C4O)C(O)C3O)cc2)NC1=O (stereo not shown) [Example 133]"
systemtested = "Streptococcus sp."
measuredresult = "<0.5 µg/mL"

[[record]]
molecule = "Cc1ccc(CC2OCC3OC(OC4C(CO)OC(Oc5ccc(CC6NC(=O)C(C(C)c7ccccc7)NC(=O)CNC(=O)C(CO)NC(=O)C(C(O)C7CNC(=N)N7C7OC(CO)C(O)C(O)C7O)NC(=O)C(C(O)C7CNC(=N)N7)NC6=O)cc5)C(O)C4O)C(O)C(O)C3O2)cc1 (stereo not shown) [Example 119]"
systemtested = "Streptococcus sp."
measuredresult = "<0.5 µg/mL"


Next up:
Bench note, Streptococcus sp.: CC(c1ccccc1)C1NC(=O)CNC(=O)C(CO)NC(=O)C(C(O)C2CNC(=N)N2C2OC(CO)C(O)C(O)C2O)NC(=O)C(C(O)C2CNC(=N)N2)NC(=O)C(Cc2ccc(OC3OC(CO)C(OC4OC5COC(CC67CC8CC(CC(C8)C6)C7)OC5C(O)C4O)C(O)C3O)cc2)NC1=O (stereo not shown) [Example 129] , MIC Streptococcus pneumoniae (ATCC 6301) reads <0.06 µg/mL
